Source: patent US3956495A

Please provide measured inhibition at 167 µg/mL for the entries that follow.
Test system: ADP-induced aggregation (platelet)
Assay: ADP-induced platelet aggregation inhibition, in vitro test (Table I)
Type: cell-based
Conditions: 167 μg/ml
Numbers only here, please. The scale is %.

// recorded inhibition at 167 µg/mL for Cc1ccc2nc(N3CCCCC3)nc(N3CCCCC3)c2c1 : 5

For reference, reported inhibition at 167 µg/mL for Clc1ccc2nc(N3CCCCC3)nc(N3CCCCC3)c2c1 stands at 61

Reported inhibition at 167 µg/mL for Cc1ccc2nc(N3CCOCC3)nc(N3CCOCC3)c2c1 was 29

Entry Clc1ccc2nc(N3CCOCC3)nc(N3CCOCC3)c2c1 ; inhibition at 167 µg/mL = 3
